# tested-system: SARS-CoV-2 Spike on HIV-based pseudotyped virus (Spike plasmid BEI NR52310) (SARS-CoV-2, UniProt P0DTC2 14-1273)
# experiment-description: cell-based or functional assay
measurement-kind: IC50 SARS-CoV2 PsV (µg/mL), IgG

[[record]]
binder = "mAb 324 (antibody, V domains shown, also called IgG 324) VH: QVQLVQSGAEVKKPGASVKVSCKASGGTFNNYGISWVRQAPGQGLEWMGWMNPNSGNTGYAQKFQGRVTMTRDTSTSTVYMELSSLRSEDTAVYYCARVGDYGDYIVSPFDLWGRGTLVTVSS VL: DIQMTQSPSSLSASVGDRVTITCRASQSITTYLNWYQQKPGKAPKLLIYDASNLETGVPSRFSGSGSGTDFTLTISSLQPEDFATYYCQQSYSTPPTFGQGTKVEIKR"
measurement_kind = "IC50 SARS-CoV2 PsV (µg/mL), IgG"
unit = "µg/mL"
value_modifier = "="
val = 0.78

[[record]]
binder = "mAb 46 (antibody, V domains shown, also called IgG 46; antibody 46) VH: EVQLLESGGGLVQPGRSLRLSCAASGFTFSSYAMSWVRQAPGKGLEWVSTIYSGGSTYYADSVKGRFTISRDNSKNTLYLQMNSLRAEDTAVYYCARGDSRDAFDIWGQGTMVTVSS VL: DIQMTQSPSSLSASVGDRVTITCRASQSISSWLAWYQQKPGKAPKLLIYDASNLETGVPSRFSGSGSGTDFTLTISSLQPEDFATYYCQQSYSTPFTFGPGTKVDIKR"
measurement_kind = "IC50 SARS-CoV2 PsV (µg/mL), IgG"
unit = "µg/mL"
value_modifier = "="
val = 2.1

[[record]]
binder = "mAb 56 (antibody, V domains shown, also called IgG 56) VH: QVQLVQSGAEVKKPGASVKVSCKASGYTFTSYGISWVRQAPGQGLEWMGWISAYNGNTNYAQKLQGRVTMTRDTSTSTVYMELSSLRSEDTAVYYCARDIGPIDYWGQGTLVTVSS VL: DIQMTQSPSSLSASVGDRVTITCRASQGISSYLAWYQQKPGKAPKLLIYDASNLQSGVPSRFSGSGSGTDFTLTISSLQPEDFATYYCQQANSFPSTFGQGTKVEIKR"
measurement_kind = "IC50 SARS-CoV2 PsV (µg/mL), IgG"
unit = "µg/mL"
value_modifier = ">"
val = 50

